Below are pKi values recorded for Metabotropic glutamate receptor 2 (Homo sapiens).
pKi: −log10 of the molar value.

Requested field: pKi. Item: N[C@H](CP(=O)(O)O)C(=O)O [CAS_23052-80-4]
< 5.00

Then N[C@@]1(C(=O)O)CC[C@H](C(=O)O)C1 [1S, 3R-ACPD] ?
5.70

Then N[C@@H](CCP(=O)(O)O)C(=O)O ?
< 5.00

Then N[C@@H](Cn1oc(=O)[nH]c1=O)C(=O)O ?
< 5.00

Then N[C@H](C(=O)O)C1[C@@H](C(=O)O)[C@@H]1C(=O)O (stereo partly specified) [DCG-IV] ?
7.22

Then C[C@](N)(C(=O)O)C1C[C@@H]1C(=O)O (stereo partly specified) [MCCG-I] ?
< 5.00
